Target: Human plasma kallikrein (Homo sapiens, UniProt P03952)
Construct: yields a heavy chain (371 amino acids) and a light chain (248 amino acids); purchased Enzyme Research Laboratories
Sequence (P03952 391-638 limits assumed): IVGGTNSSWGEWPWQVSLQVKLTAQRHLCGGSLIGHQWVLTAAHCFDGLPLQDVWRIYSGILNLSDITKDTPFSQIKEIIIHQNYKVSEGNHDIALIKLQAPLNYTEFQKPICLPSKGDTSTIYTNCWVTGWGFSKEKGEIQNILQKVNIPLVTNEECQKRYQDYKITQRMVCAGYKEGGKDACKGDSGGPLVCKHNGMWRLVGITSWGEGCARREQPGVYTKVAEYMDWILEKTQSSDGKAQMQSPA
Sequence (P03952 20-390 partner limits assumed): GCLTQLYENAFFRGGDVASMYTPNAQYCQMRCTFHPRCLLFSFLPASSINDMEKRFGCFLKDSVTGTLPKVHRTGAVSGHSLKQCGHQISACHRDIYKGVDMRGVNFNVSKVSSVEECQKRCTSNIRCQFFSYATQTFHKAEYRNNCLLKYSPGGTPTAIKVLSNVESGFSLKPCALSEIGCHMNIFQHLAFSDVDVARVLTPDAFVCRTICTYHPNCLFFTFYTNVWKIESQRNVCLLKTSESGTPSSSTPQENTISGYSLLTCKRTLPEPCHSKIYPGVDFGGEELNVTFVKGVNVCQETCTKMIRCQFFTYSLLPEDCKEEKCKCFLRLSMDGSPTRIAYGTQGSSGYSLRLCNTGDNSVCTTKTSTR
Assay: Kallikrein Assay
Format: biochemical
Settings: Plasma Kallekrein IC50; Examples 1-19 table; read-out: PK IC50
readout_kind: IC50 (nM)

Reported IC50 ( [O-][n+]1cc(-c2cc(Cl)ccc2-n2cnnn2)ccc1C(Cc1ccccc1)c1nc2cc(F)ccc2[nH]1 (racemic) [Example 7] ) = 186

The compound listed as [O-][n+]1cc(-c2cc(Cl)ccc2-n2cnnn2)ccc1C(Cc1ccccc1)c1nc2cc(F)ccc2[nH]1 (stereo in doubt) [Example 9] shows IC50 equal to 295

What the record says about O=C(O)c1ccc2[nH]c([C@@H](Cc3ccccc3)c3ccc(-c4cc(Cl)ccc4-n4cnnn4)c[n+]3[O-])nc2c1 : IC50 is 216

Documented IC50 of [O-][n+]1cc(-c2cc(Cl)ccc2-n2cnnn2)ccc1[C@@H](Cc1ccc(F)cc1)c1nc2cc(F)ccc2[nH]1 : 245

a. [O-][n+]1cc(-c2cc(Cl)ccc2-n2cnnn2)ccc1C(Cc1ccccc1)c1nc2cc(F)ccc2[nH]1 (stereo in doubt) [Example 8]
b. O=C(O)c1ccc2[nH]c(C(Cc3ccccc3)c3ccc(-c4c(F)ccc(Cl)c4F)c[n+]3[O-])nc2c1 (racemic) [Example 1]
c. O=C(O)c1ccc2[nH]c(C(Cc3ccccc3)c3ccc(-c4c(F)ccc(Cl)c4F)c[n+]3[O-])nc2c1 (stereo in doubt) [Example 3]
-- ask Ranking field: IC50; order: falling. Please list the labels according to the requested order.
-- reply b, c, a
